Just for reference, paper PMC6718736 is where these values come from.

Entries and their Assigned classification CYP3A4
# System: CYP3A4
# Procedure Details: CYP3A4 enzyme induction assay in cryopreserved primary human hepatocytes (PHH)
# Conditions Used: PHH; Lab 3; batch 8 0 8
Counter-ions that a name gives are not always drawn.
Measurement Kind: Assigned classification CYP3A4

compound="COc1ccccc1Oc1c(NS(=O)(=O)c2ccc(C(C)(C)C)cc2)nc(-c2ncccn2)nc1OCCO [Bosentan hydrate]" result_number=1
compound="NC(=O)N1c2ccccc2C=Cc2ccccc21 [Carbamazepine]" result_number=1
compound="COc1ccc2[nH]c([S+]([O-])Cc3ncc(C)c(OC)c3C)nc2c1 (stereo not shown)" result_number=1
compound="CC(C)NCC(O)c1ccc(NS(C)(=O)=O)cc1 (stereo not shown) [Sotalol hydrochloride]" result_number=0
compound=O=C1Nc2ccc(Cl)cc2[C@@](C#CC2CC2)(C(F)(F)F)O1 result_number=1
compound="O=C1NC(=O)C(c2ccccc2)(c2ccccc2)N1 [Phenytoin sodium]" result_number=1
compound="COCCc1ccc(OCC(O)CNC(C)C)cc1 (stereo not shown)" result_number=0
